The origin of these recorded values is patent US7271164B2.

system_tested: UniProtKB P28335
Sequence (P28335 33-458): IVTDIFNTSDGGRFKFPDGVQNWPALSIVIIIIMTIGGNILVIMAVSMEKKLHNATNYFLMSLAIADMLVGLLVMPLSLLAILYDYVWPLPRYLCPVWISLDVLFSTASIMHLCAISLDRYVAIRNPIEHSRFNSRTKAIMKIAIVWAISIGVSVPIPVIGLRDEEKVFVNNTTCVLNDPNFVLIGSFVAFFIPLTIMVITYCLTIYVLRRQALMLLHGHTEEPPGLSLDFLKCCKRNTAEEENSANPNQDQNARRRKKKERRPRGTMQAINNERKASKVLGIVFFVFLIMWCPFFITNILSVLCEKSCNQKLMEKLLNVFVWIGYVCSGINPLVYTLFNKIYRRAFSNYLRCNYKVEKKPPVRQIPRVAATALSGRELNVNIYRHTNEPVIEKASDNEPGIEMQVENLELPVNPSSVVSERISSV
reported_metric: Kd
Remember to follow the number with its unit.

Would you mind telling me what Kd value was observed for COc1cc(CC(C)N)c(OC)cc1I (stereo not shown) [[^125I] DOI] ?
0.4 nM
